Tested on: CEM cells HIV-1 protection, formazan growth assay
procedureDetails: NCI AIDS Antiviral Assay
statedConditions: measured here: growth of uninfected CEM cells
pIC50: −log10 of the molar value.
metric: pIC50

Example cases with answers are listed next.
compound=CC(=O)OCCCCn1cnc2c(Cl)nc(Nc3ccccc3)nc21 testresult="< 3.70"
compound=CCOC(=O)CSc1nc(N)c2c(-c3ccccc3)c3c(nc2n1)CCCC3 testresult="< 3.70"
compound="COC(=O)N1c2c(ccc3c2OCO3)C23C4CN5CCCC(CCC12C(=O)OC)(CC4=O)C53 (stereo unspecified)" testresult="< 5.10"
compound="C1=CC2C(C3CN(c4ccccc4)N=C13)C1C3C4C=CC21C=CC43 (stereo unspecified)" testresult="< 3.70"
compound=O=C(CC1=Nc2nnc(CCCCCCCc3nnc4n3C(=O)C(CC(=O)c3ccc5ccccc5c3)=N4)n2C1=O)c1ccc2ccccc2c1 testresult="< 5.39"

Turning now to a further record.
Query: Hello, please tell me recorded pIC50 for this one: "CC1(C)C(=O)N(c2ccccc2)C(=O)N1c1nc2ccccc2[nH]1"
Result: < 3.81

Just for reference, PubChem BioAssay AID179 is where these values come from.
